Numbers sourced from ChEMBL document CHEMBL1146494.

assay: Cytotoxicity against HUVEC; assay type: cell-based; conditions: human, HUVEC cells; read-out: ED50 (the source's name)
Observable: CC50

Data request, read-out CC50, for Cc1cc(O)c2c(c1)[C@@H](C[C@H]1OC[C@@H](OC(=O)c3ccccc3)[C@@H](O)[C@@H]1O)c1cccc(O)c1C2=O [PICRAMNIOSIDE G]
> 5 mg/L

###

test: Cytotoxicity against HUVEC; type: cell-based; conditions: human, HUVEC cells; read-out: ED50 (the source's name)
Observable: CC50

>  <Compound>
Cc1cc(O[C@@H]2O[C@H](CO)[C@@H](O)[C@H](O)[C@H]2O)c2c(c1)C(=O)c1cccc(O)c1C2=O

>  <CC50>
> 5 µg/mL

$$$$
>  <Compound>
CC[C@H](CC[C@@H](C)[C@H]1CC[C@H]2[C@@H]3CC=C4C[C@@H](O[C@@H]5O[C@H](CO)[C@@H](O)[C@H](O)[C@H]5O)CC[C@]4(C)[C@H]3CC[C@]12C)C(C)C [SITOGLUSIDE]

>  <CC50>
> 5 µg/mL

$$$$
>  <Compound>
CC[C@H](CC[C@@H](C)[C@H]1CC[C@H]2[C@@H]3CC=C4C[C@@H](O)CC[C@]4(C)[C@H]3CC[C@]12C)C(C)C

>  <CC50>
> 5 µg/mL

$$$$

Data request, read-out CC50, for Cc1cc(O)c2c(c1)C(=O)c1cccc(O)c1C2=O
> 5 µg/mL

Data request, read-out CC50, for Cc1cc(O)c2c(c1)C(=O)c1ccc(O)c(O)c1C2=O
5 µg/mL
